All figures here come from patent US20140107062A1.

# procedure details: Drug distribution 28-day PK study in naïve mice implanted with ETDS
# Assay type: in vivo
# reported conditions: mouse, plasma, subcutaneous, Day 28, FR ETDS, individual mice; read-out: Plasma Conc.

| compound | concentration at 28 day [ng/mL] |
| --- | --- |
| CC1(C)C(/C=C/C=C/C=C/C=C2\N(CCCCS(=O)(=O)O)c3ccc4ccccc4c3C2(C)C)=[N+](CCCCS(=O)(=O)[O-])c2ccc3ccccc3c21 [ICG, Indocyanine green] | 2.39 |
| O=C1CCC(N2C(=O)c3ccccc3C2=O)C(=O)N1 (racemic) [THX] | 9.03 |

---

# procedure details: Drug distribution 28-day PK study in naïve mice implanted with ETDS
# Assay type: in vivo
# reported conditions: mouse, subcutaneous tissue, subcutaneous, HCFU; naïve mice, day 28, n = 3; read-out: Drug Exposure, Subcutaneous Tissue
endpoint name: concentration at 28 day (µg/mL)

| structure string | endpoint name | observed result |
| --- | --- | --- |
| CCCCCCNC(=O)n1cc(F)c(=O)[nH]c1=O | concentration at 28 day | 0.0433 |
